Tested on: mouse ESC-derived MNs
Assay: Compounds on unstressed MNs
Format: cell-based
Conditions: absence of any stress
parameter-measured: toxicity to unstressed MNs

Recall and state the measured toxicity to unstressed MNs for CN1CC[C@H](c2c(O)cc(O)c3c(=O)cc(-c4ccccc4Cl)oc23)[C@H](O)C1 [flavopiridol] .
induced toxicity

Provide measured toxicity to unstressed MNs value, entry: CC(C)(C)c1cnc(CSc2cnc(NC(=O)C3CCNCC3)s2)o1 [BMS-387032]
induced toxicity

// fetch toxicity to unstressed MNs given entry CCc1cnn2c(NCc3ccc[n+]([O-])c3)cc(N3CCCC[C@H]3CCO)nc12 [dinaciclib]
induced toxicity
